Multiple publications report IC50 for UniProt:P10635; what follows is a combined list.
Sequence (P10635 whole entry): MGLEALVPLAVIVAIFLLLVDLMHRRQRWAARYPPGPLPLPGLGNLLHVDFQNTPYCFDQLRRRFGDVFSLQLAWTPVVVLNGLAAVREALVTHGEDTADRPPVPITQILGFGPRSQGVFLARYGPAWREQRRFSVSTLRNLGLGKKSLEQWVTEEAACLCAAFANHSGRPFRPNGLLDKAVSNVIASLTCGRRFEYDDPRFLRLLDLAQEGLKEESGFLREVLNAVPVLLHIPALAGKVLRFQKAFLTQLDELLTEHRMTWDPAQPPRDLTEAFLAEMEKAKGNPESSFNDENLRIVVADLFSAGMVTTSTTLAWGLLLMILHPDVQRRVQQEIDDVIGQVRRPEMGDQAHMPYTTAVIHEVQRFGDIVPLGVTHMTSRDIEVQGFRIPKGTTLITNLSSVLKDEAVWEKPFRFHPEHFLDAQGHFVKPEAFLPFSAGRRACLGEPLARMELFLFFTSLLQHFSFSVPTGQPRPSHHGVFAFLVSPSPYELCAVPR
Property measured: IC50 (µM)

INSERT INTO assay_data (compound, target, property_measured, rel, val) VALUES
  ('CC/C(=C(/c1ccc(/C=C/C(=O)O)cc1)c1[nH]c2ccccc2c1Cl)c1ccc(F)cc1Cl', 'UniProt:P10635', 'IC50', '=', 14.3),
  ('CCc1cn(CC(=O)N(CCN(CC)CC)Cc2ccc(-c3ccc(Cl)cc3)cc2)c(SCc2ccc(F)cc2)nc1=O', 'UniProt:P10635', 'IC50', '=', 14),
  ('CCOc1ccc(-c2ccc(-c3cc(CC(=O)[O-])ccc3OC)c(CN(CC)C(=O)C3CC3)c2)cn1.[Na+]', 'UniProt:P10635', 'IC50', '>', 50),
  ('CCNCCS(=O)(=O)CC[C@@H]1OCC[C@@]2(S(=O)(=O)c3ccc(Cl)cc3)c3c(F)ccc(F)c3OC[C@@H]12', 'UniProt:P10635', 'IC50', '>', 20),
  ('C1=CCC(c2cc3ccccc3o2)CNC1 (configuration not stated)', 'UniProt:P10635', 'IC50', '=', 7.8),
  ('CCN1CCN(c2nc(C)nc3sc(-c4ccccc4)cc23)CC1', 'UniProt:P10635', 'IC50', '=', 3),
  ('O=[N+]([O-])c1cnc(NCc2ccccc2Cl)nc1NCC1CCNCC1', 'UniProt:P10635', 'IC50', '>', 30),
  ('CCN1CCN(CC(=O)Nc2ccc(-c3cccc4c(=O)cc(N5CCOCC5)oc34)c3sc4ccccc4c23)CC1', 'UniProt:P10635', 'IC50', '>', 10),
  ('Oc1cccc(-c2ccc(-c3cccc(O)c3)cc2)c1', 'UniProt:P10635', 'IC50', '>', 4),
  ('C[C@H](Oc1cc2cc(F)cc(F)c2nc1N)c1cc(C(=O)O)ccc1-n1cccn1', 'UniProt:P10635', 'IC50', '>', 30),
  ('N=C(N)NC(=O)c1ccc(C2CCN(C(=O)c3ccccn3)CC2)c(C(F)(F)F)c1', 'UniProt:P10635', 'IC50', '=', 27),
  ('Cc1ccccc1-c1nncc2cc(-c3c(C)ccc4c(NC5CC5)noc34)ccc12', 'UniProt:P10635', 'IC50', '>', 25),
  ('Nc1cc(CN2CCC(F)(C(=O)N3CCC(N4Cc5ccccc5-c5ccccc5C4)CC3)CC2)ccn1', 'UniProt:P10635', 'IC50', '=', 0.3),
  ('O=S(=O)(C1CC1)N1CCC(Oc2ccc3c(c2)CCC2(CCN(C4CCC4)CC2)O3)CC1', 'UniProt:P10635', 'IC50', '>', 30),
  ('Cl.Cn1c(=O)c2c(cc(N3CCC[C@@](C)(N)C3)n2Cc2cc(F)ccc2Cl)n(CCCO)c1=O', 'UniProt:P10635', 'IC50', '=', 0.2),
  ('O=C(O)C1CCN(C2CC[C@]3(Cc4ccccc4Cc4ccccc43)C2)CC1 (some centres not stated)', 'UniProt:P10635', 'IC50', '>', 10),
  ('COc1ccc(-c2ccc([C@H](C)N3CC[C@](CC(C)(C)O)(c4ccccc4)OC3=O)cc2)cn1', 'UniProt:P10635', 'IC50', '>', 50);
